Values compiled from paper PMC10786891.

Hi there, I'd appreciate the recorded pKd for every entry that follows.
Target: T1, EsCas13d, nuclease-dead (Eubacterium siraeum, UniProt B0MS50, R295A;H300A;R849A;H854A)
T1 sequence: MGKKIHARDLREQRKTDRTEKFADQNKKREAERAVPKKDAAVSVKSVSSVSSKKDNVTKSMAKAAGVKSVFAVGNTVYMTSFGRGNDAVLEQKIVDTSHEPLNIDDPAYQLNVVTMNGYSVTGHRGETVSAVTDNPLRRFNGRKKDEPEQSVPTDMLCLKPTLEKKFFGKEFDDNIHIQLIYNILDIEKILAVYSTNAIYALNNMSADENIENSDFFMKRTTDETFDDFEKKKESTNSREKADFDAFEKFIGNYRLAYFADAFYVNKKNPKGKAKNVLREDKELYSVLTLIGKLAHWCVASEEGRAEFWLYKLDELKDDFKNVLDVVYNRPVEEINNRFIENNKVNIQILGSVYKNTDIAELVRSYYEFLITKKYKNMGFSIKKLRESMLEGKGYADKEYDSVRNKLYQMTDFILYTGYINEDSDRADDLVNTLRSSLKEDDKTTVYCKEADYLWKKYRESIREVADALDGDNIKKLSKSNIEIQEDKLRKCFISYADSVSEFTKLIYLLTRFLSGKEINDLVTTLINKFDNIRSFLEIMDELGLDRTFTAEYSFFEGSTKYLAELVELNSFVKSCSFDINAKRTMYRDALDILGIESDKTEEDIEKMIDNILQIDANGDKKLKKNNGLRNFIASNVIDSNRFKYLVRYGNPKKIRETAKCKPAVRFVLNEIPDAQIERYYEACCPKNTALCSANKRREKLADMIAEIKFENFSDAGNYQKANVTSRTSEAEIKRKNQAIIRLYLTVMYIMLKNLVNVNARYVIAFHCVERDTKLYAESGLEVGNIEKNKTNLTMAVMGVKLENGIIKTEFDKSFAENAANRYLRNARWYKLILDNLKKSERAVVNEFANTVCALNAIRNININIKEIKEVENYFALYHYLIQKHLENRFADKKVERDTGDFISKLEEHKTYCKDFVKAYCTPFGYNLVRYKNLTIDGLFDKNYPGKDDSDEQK
Assay: crRNA (strand 1, pre-loaded); Mg2+; 40 mM Tris-HCl pH 7.5, 150 mM NaCl, 6 mM MgCl2, 1 mM DTT, 0.1% Tween-20, 0.2 mg/ml BSA; 25 C; 10 min per concentration, then washed
Details: tags: His6-TwinStrep-SUMO cleaved; N-terminal SNAP kept (SNAP-Surface 488); label: 3' end held by stalled T7 RNA polymerase
pKd field: float, defined as -log10 of concentration (mol/L).

Request the reported pKd associated with target 2 MT 5'PFS CGG 3'PFS CGA (mixed) RNA 1: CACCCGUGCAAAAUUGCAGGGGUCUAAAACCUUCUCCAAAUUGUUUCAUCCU RNA 2: GGGAAUGGAUCCACAUCUACGAAUUCCGGAGGAUGAAACAAUUUGGAGAAGCGAAGAUCGGAAGAGCACACGU
8.52

Request the reported pKd associated with target 2 MT 5'PFS GCG 3'PFS AGA (mixed) RNA 1: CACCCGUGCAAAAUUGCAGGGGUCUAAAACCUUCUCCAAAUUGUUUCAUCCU RNA 2: GGGAAUGGAUCCACAUCUACGAAUUCGCGAGGAUGAAACAAUUUGGAGAAGAGAAGAUCGGAAGAGCACACGU
8.12

Request the reported pKd associated with target 1 insC 3' of 10,insG 3' of 9 (mixed) RNA 1: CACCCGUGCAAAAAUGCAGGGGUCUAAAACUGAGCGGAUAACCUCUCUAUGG RNA 2: GGGAAUGGAUCCACAUCUACGAAUUCGUACCAUAGAGAGGUUCAGUCCGCUCACCGAGAUCGGAAGAGCACACGU
7.77
